IRAK4 (Homo sapiens (Human), UniProt Q9NWZ3) measurements of IC50, listed per entry.
Sequence (Q9NWZ3 whole entry): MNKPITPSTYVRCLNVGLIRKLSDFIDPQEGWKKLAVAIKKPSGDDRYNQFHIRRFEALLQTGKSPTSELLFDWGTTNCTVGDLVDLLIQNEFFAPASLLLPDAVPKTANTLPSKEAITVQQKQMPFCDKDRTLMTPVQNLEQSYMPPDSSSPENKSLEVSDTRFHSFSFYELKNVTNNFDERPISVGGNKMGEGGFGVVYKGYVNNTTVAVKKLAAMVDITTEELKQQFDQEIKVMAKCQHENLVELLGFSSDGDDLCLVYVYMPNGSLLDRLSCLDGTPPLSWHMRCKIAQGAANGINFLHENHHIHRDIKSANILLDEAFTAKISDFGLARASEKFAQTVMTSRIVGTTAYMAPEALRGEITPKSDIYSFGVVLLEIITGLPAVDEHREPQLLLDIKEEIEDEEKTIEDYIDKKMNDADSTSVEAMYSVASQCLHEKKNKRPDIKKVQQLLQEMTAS
# value in nM; strip the unit string

Data request: Given CC(C)Oc1cc2nc(C34COC(C)(C3)C4)cn2cc1C(=O)Nc1cccn(C)c1=O [Comparator 1D, reference compound] , respond with its IC50.
Data returned: 0.6

Data request: Given C[C@]12CC[C@](c3cn4cc(C(=O)Nc5cccn(C6CC6)c5=O)c(OC5CCC5)cc4n3)(CO1)C2 (single isomer, unassigned) , respond with its IC50.
Data returned: 0.7

Data request: Given CC(C)Oc1cc2nc([C@]34CC[C@](C)(C3)OC4)cn2cc1C(=O)Nc1cccn([C@H]2C[C@@H]2F)c1=O (single isomer, unassigned) , respond with its IC50.
Data returned: 0.7
